# Tested on: Plasmodium falciparum
# measurementProtocol: Primary screen in NF54 nanoGlo assay, in single point, at 2uM, 72h
# Format: functional, Erythrocyte
# assaySetup: timepoint 72 hour
Hit rate of the full screen: of about 150,000 compounds, about 540 (0.36%) showed an effect of 50% or more. The full list was thinned out, with strong results kept by preference.
Item-by-item account of % Inhibition
# value in %; strip the unit string

Consider the reported % Inhibition for these compounds:
C[C@H]1CN2C=NC(N3CCN(C(=O)c4ccccc4)CC3)=CC2=N1: -3
O=C(CCC1CCCCC1)NC1CCN(c2cn[nH]c(=O)c2)CC1: -10
Cc1cc(NC(=O)Cc2ccc(-c3ccccc3)cc2)n(-c2nc3c(c(=O)[nH]2)CCC3)n1: -4
COc1ccccc1Nc1c2c(nc3ccc(NC(=O)c4ccc5c(c4)OCO5)cc13)CCCC2: 2
CC(=O)Nc1ccc(-c2cn3c4ccccc4ccc3[n+]2C)cc1: 87

Plasmodium falciparum / % Inhibition / CCCN1CCN(C(=O)c2ccnc(N3CCN[C@H](c4ccccc4)C3)c2)CC1 : value?
-13

Plasmodium falciparum / % Inhibition / CN(C(=O)Cn1c(=O)n(C)c(=O)c2ccccc21)C1CCCCC1 : value?
-1

Plasmodium falciparum / % Inhibition / CN1CC[C@H](N(C)C(=O)c2ccc(-c3ccc4c(=O)[nH]ccc4c3)cc2)C1 : value?
-4

Plasmodium falciparum / % Inhibition / CC(=O)Nc1ccc(-c2cn(C)c[n+]2C)cc1 : value?
-42

Plasmodium falciparum / % Inhibition / CO[C@@]12CC[C@@H](OCC3CC3)C[C@@H]1N(C(=O)c1csc(C(C)C)n1)CC2 : value?
-2

----------
Item-by-item account of Z score
# Tested on: Plasmodium falciparum
# measurementProtocol: Primary screen in NF54 nanoGlo assay, in single point, at 2uM, 72h
# Type: functional, Erythrocyte
# assaySetup: timepoint 72 hour
The campaign covered roughly 150,000 compounds. About 540 (0.36%) showed an effect of 50% or more. This excerpt belongs to a sample that is enriched for strong results.
Please give the numeric answer without any surrounding text.

O=C(Cc1ccc(N(Cc2ccc(F)cc2)C(=O)c2cccc(F)c2)cc1)NCc1ccccc1: 0.3

Returns the measured Z score for the input compound. Input: O=C(Cc1ccc(N(Cc2cccc(F)c2)C(=O)C2CCCC2)cc1)NCCN1CCCCC1
-9.89

Returns the measured Z score for the input compound. Input: CC1CN(C(=O)CN(C)c2cnccn2)CC(C)O1 (stereo not given)
0.83

Returns the measured Z score for the input compound. Input: CC(=O)Nc1ccc(C)cc1S(=O)(=O)N1CC=C(c2c(C)n(Cc3ccc(Cl)cc3)c3ccccc23)CC1
1.87

Returns the measured Z score for the input compound. Input: CC1(C)COc2ccc(C(=O)N3CC[C@H](O)C3(C)C)cc21
-2.22

----------
Item-by-item account of % Inhibition
# Tested on: Plasmodium falciparum
# measurementProtocol: Primary screen in NF54 nanoGlo assay, in single point, at 2uM, 72h
# Assay type: functional, Erythrocyte
# assaySetup: timepoint 72 hour
Out of some 150,000 compounds screened, about 540 (0.36%) showed an effect of 50% or more. For the sample, strong results were picked, then their nearest neighbours and some compounds at random.
# value in %; strip the unit string

C[C@@H]1CC[C@H](CO)N1C(=O)Cc1cccc(C(F)(F)F)n1: 3
Cc1ccc(N2C(=O)C3C4C=CC(C4=C4CCCCC4)C3C2=O)cc1Cl (stereo unspecified): -11
CCOc1cc2c(cc1CN1CCN(C)[C@]3(CCC(=O)N(C)CC3)C1)CCC2: -10
Cc1cc(C(=O)Nc2nc(C)cs2)on1: -13
O=C([C@@H]1CCCN1C1CC1)N1CCC2(CC1)OCCc1ccccc12: -14

Moving on to the next compound.
Returns the measured % Inhibition for the input compound. Input: Cc1cccc(OC2CN([C@@H](C)CCN(C)C)C2)c1
-19

----------
# System: Plasmodium falciparum
# measurementProtocol: Primary screen in NF54 nanoGlo assay, in single point, at 2uM, 72h
# Type: functional, Erythrocyte
# assaySetup: timepoint 72 hour
Screen size: about 150,000 compounds; about 540 (0.36%) showed an effect of 50% or more. Many of the other results were omitted from the sample, so strong results are more common in it than they were.
propertyName: Z score
Please give the numeric answer without any surrounding text.

Consider the reported Z score for these compounds:
Nc1ncnc(NCCc2ccccc2)n1: -0.24
O=C(Nc1ccnn1C1CCC1)c1ccc(-c2cn[nH]c2)cn1: 1.42
CC1(C)CN(Cc2nnc(C3CC3)o2)CCN1Cc1ccccc1: 0.43
CCOc1ccc(S(=O)(=O)N[C@H]2CC[C@@H](CC(=O)O)C2)c(C)c1: 0.16
CCOC(=O)C1(C(=O)NCc2cc(C)on2)CCCC1: -0.84

Moving on to the next compound.
Returns the measured Z score for the input compound. Input: Cc1cc(C)c(-c2ccc(C(=O)N(C)CCn3ccnc3C)cc2)cc1C
0.69

----------
Item-by-item account of % Inhibition
# Test system: Plasmodium falciparum
# measurementProtocol: Primary screen in NF54 nanoGlo assay, in single point, at 2uM, 72h
# Format: functional, Erythrocyte
# assaySetup: timepoint 72 hour
In all, about 150,000 compounds went through this assay and about 540 (0.36%) showed an effect of 50% or more. This excerpt belongs to a sample that is enriched for strong results.
# value in %; strip the unit string

Consider the reported % Inhibition for these compounds:
CCc1noc(-c2cccnc2-n2cnc(C(=O)NCc3ccccc3F)c2)n1: 35
COc1ccc(-[n+]2c(-c3ccc(-c4ccccc4)cc3)cn3c2COCC3)cc1: 58
O=C(C1CCC(C2CC2)N1)N1CCC2(CCc3ccccc3C2=O)CC1 (stereo not drawn): 1
NC(=O)c1ccc(C(=O)OC2CCCCCC2)cn1: 3
COc1cc(NC(=O)N2Cc3cn[nH]c3CC(C)(C)C2)c(C)c(OC)c1: 13
Fc1ccc([C@@H]2CCN2CCn2cc(Cl)cn2)cc1: 12
NC1CCC(C(=O)NCC2(c3ccccc3Cl)CCOCC2)C1 (stereo not drawn): 8
COc1ccc(-c2nn(-c3ccccc3F)cc2CN2CCOCC2)cc1: -19

Returns the measured % Inhibition for the input compound. Input: CCCC1CCC(OC(=O)c2ccc(C(=O)OC3CCC(CCC)CC3)nc2)CC1 (stereo not drawn)
74

Returns the measured % Inhibition for the input compound. Input: Cc1ccc2c(c1)c1c(n2S(=O)(=O)c2ccc(C(C)(C)C)cc2)CCCN(C)C1
67

Returns the measured % Inhibition for the input compound. Input: CCN1CCN(Cc2cc3cc4c(cc3nc2-c2ccc(Cl)cc2)OCO4)CC1
-10

----------
Item-by-item account of % Inhibition
# System: Plasmodium falciparum
# measurementProtocol: Primary screen in NF54 nanoGlo assay, in single point, at 2uM, 72h
# Assay type: functional, Erythrocyte
# assaySetup: timepoint 72 hour
Hit rate of the full screen: of about 150,000 compounds, about 540 (0.36%) showed an effect of 50% or more. For the sample, strong results were picked, then their nearest neighbours and some compounds at random.
# value in %; strip the unit string

COc1ccc(S(=O)(=O)N2CCC(n3cnnc3C)CC2)cc1Cl: -11
O=C1C[C@@H](c2ccccc2)N(Cc2ccncc2)CCCNCCN1: -9
CCc1ocnc1C(=O)NC1CCCCCC1C(=O)OC (configuration not stated): -7

Returns the measured % Inhibition for the input compound. Input: CC(=O)c1ccc(S(=O)(=O)NC2(C(F)(F)F)CCOCC2)cc1
-12

Returns the measured % Inhibition for the input compound. Input: CCn1cc(-c2cccc(C(=O)N[C@@H](C)c3nc(C)sc3C)c2)cn1
-4

Returns the measured % Inhibition for the input compound. Input: Cc1ccc(CNC(=O)[C@]2(C)CCC(=O)N2CCCc2ccccc2)cc1
-16

Returns the measured % Inhibition for the input compound. Input: C[C@@]1(NC(=O)CCc2nc(C3CCCC3)no2)CC=CCC1
-10

Returns the measured % Inhibition for the input compound. Input: FC(F)(F)c1ccc(N2CCCN(Cc3nc4ccccc4o3)CC2)nc1
-8

----------
# Tested on: Plasmodium falciparum
# measurementProtocol: Primary screen in NF54 nanoGlo assay, in single point, at 2uM, 72h; a lower Z score goes with more inhibition
# Format: functional, Erythrocyte
# assaySetup: timepoint 72 hour
The campaign covered roughly 150,000 compounds. About 540 (0.36%) showed an effect of 50% or more. Many of the other results were omitted from the sample, so strong results are more common in it than they were.
Item-by-item account of Z score
Please give the numeric answer without any surrounding text.

CC(C)c1nnc2c3ccccc3nc(N3CCN(C(=O)c4ccc(Cl)cc4)[C@@H](C)C3)n12: 0.12
COc1ccccc1Oc1cn[nH]c1-c1ccc(OCc2ccccc2C)cc1O: 0.65
Cc1cccc(Cl)c1NC(=O)N1CCS(=O)(=O)[C@@H](C)C1: 0.54
Oc1cc(OCc2ccccc2F)ccc1-c1[nH]ncc1-c1ccccc1: -11.1

Moving on to the next compound.
Plasmodium falciparum / Z score / CCc1nc(O)c(C(=O)N2CCOc3cc(F)c(F)cc32)cc1C : value?
0.67
